- Test system: stage II naupliar larvae of the barnacle Amphibalanus amphitrite
- PROTOCOL_NOTES: Toxicity assay with barnacle nauplii
- Type: in vivo
- CONDITION: Amphibalanus amphitrite (barnacle), stage II naupliar larvae, in vivo
Exam item: assign Y to entries whose LD50 is below 10 µg/mL and N to entries at or above 10 µg/mL. Note that a value of exactly 10 µg/mL receives N.

Query string: Please check: LD50 for CCCCC(C(=O)N1CCCCC1)c1ccc(OC(C)=O)cc1 (stereo not drawn) [Compound 16.4] , strictly under 10 µg/mL or not?
Result string: N

Query string: Please check: LD50 for CCCCC(C(=O)N1CCCCC1)c1ccc(O)cc1 (stereo not drawn) [Compound 16.5] , strictly under 10 µg/mL or not?
Result string: N

Query string: Please check: LD50 for CCCCC(C(=O)N1CCCCC1)c1cccc(O)c1 (stereo not drawn) [Compound 17.5] , strictly under 10 µg/mL or not?
Result string: N

Query string: Please check: LD50 for CCCCC(C(=O)N1CCCCC1)c1ccccc1 (stereo not drawn) [Compound 12.1, reference compound] , strictly under 10 µg/mL or not?
Result string: Y

Query string: Please check: LD50 for CCCCC(C(=O)N1CCCCC1)c1ccccc1O (stereo not drawn) [Compound 17.4] , strictly under 10 µg/mL or not?
Result string: N
